target: Monoamine transporters; serotonin & dopamine (Rattus norvegicus) (UniProt P31652+P23977); experiment: Ratio of IC50 of 5-HT (serotonin transporter) to IC50 of DA (dopamine transporter); type: protein assay
Sequence (P23977 whole entry, looked up): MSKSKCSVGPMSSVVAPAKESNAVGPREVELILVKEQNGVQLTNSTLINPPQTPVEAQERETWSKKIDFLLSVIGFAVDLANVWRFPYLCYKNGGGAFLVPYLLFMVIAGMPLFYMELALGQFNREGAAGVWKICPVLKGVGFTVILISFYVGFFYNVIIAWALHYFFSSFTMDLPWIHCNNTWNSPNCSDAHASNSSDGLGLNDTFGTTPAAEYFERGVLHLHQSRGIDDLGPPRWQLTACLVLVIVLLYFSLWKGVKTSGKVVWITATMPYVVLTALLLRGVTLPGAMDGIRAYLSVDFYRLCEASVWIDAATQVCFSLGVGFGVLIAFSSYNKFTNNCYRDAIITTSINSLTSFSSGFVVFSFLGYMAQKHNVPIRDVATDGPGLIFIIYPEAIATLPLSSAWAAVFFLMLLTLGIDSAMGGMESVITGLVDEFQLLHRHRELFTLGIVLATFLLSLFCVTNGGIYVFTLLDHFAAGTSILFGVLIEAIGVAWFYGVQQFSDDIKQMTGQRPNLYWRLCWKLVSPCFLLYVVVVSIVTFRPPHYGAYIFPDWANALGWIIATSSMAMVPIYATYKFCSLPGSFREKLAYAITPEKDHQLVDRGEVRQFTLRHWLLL
Sequence (P31652 whole entry, looked up): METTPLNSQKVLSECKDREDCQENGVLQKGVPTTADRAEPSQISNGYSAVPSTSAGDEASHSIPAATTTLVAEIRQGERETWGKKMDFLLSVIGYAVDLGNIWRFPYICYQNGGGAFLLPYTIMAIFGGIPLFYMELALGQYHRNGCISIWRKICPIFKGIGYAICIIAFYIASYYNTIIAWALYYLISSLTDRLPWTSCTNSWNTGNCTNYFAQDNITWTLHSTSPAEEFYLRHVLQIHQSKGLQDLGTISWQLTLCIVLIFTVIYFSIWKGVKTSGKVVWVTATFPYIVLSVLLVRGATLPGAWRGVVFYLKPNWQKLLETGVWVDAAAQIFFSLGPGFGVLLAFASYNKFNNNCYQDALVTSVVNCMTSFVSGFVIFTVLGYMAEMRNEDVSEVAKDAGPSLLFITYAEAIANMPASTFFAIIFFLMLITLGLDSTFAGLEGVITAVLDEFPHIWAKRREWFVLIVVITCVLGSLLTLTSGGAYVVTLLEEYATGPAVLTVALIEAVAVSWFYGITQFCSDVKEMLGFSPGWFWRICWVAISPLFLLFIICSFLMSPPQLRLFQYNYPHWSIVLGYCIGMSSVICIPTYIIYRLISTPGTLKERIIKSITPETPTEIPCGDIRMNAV
Please respond with reported Ratio for every item in the list.

Problem: // lookup Ratio | system=Monoamine transporters; serotonin & dopamine (Rattus norvegicus) (UniProt P31652+P23977) | key= CN(C)C1C2CCC(CC2=O)C1c1ccccc1 (stereo in doubt; 6)
Solution: 7.8

Problem: // lookup Ratio | system=Monoamine transporters; serotonin & dopamine (Rattus norvegicus) (UniProt P31652+P23977) | key= CC(=O)OC1CC2CCC1C(N(C)C)C2c1ccccc1 (stereo in doubt; 17)
Solution: 0.5

Problem: // lookup Ratio | system=Monoamine transporters; serotonin & dopamine (Rattus norvegicus) (UniProt P31652+P23977) | key= CN(C)C1C2CCC(CC2OC(=O)c2ccccc2)C1c1ccccc1 (stereo in doubt; 12)
Solution: 41

Problem: // lookup Ratio | system=Monoamine transporters; serotonin & dopamine (Rattus norvegicus) (UniProt P31652+P23977) | key= CC(=O)OC1CC2CCC1C(N(C)C)C2c1ccccc1 (stereo in doubt; 16)
Solution: 0.35

Problem: // lookup Ratio | system=Monoamine transporters; serotonin & dopamine (Rattus norvegicus) (UniProt P31652+P23977) | key= CN(C)C1C2CCC(CC2=O)C1c1ccccc1 (stereo in doubt; 13)
Solution: 5.9

Problem: // lookup Ratio | system=Monoamine transporters; serotonin & dopamine (Rattus norvegicus) (UniProt P31652+P23977) | key= CC(=O)OC1CC2CCC1C(N(C)C)C2c1ccccc1 (stereo in doubt; 9)
Solution: 0.46

Problem: // lookup Ratio | system=Monoamine transporters; serotonin & dopamine (Rattus norvegicus) (UniProt P31652+P23977) | key= CN(C)C1C2CCC(CC2O)C1c1ccccc1 (stereo in doubt; 15)
Solution: > 10

Problem: // lookup Ratio | system=Monoamine transporters; serotonin & dopamine (Rattus norvegicus) (UniProt P31652+P23977) | key= CN(C)C1C2CCC(CC2O)C1c1ccccc1 (stereo in doubt; 14)
Solution: 1.7

Problem: // lookup Ratio | system=Monoamine transporters; serotonin & dopamine (Rattus norvegicus) (UniProt P31652+P23977) | key= CN(C)C1C2CCC(CC2O)C1c1ccccc1 (stereo in doubt; 7)
Solution: 4.7

Problem: // lookup Ratio | system=Monoamine transporters; serotonin & dopamine (Rattus norvegicus) (UniProt P31652+P23977) | key= CN(C)C1C2CCC(CC2OC(=O)c2ccccc2)C1c1ccccc1 (stereo in doubt; 11)
Solution: 0.15

Problem: // lookup Ratio | system=Monoamine transporters; serotonin & dopamine (Rattus norvegicus) (UniProt P31652+P23977) | key= CN(C)C1C2CCC(CC2OC(=O)c2ccccc2)C1c1ccccc1 (stereo in doubt; 18)
Solution: 0.35

Problem: // lookup Ratio | system=Monoamine transporters; serotonin & dopamine (Rattus norvegicus) (UniProt P31652+P23977) | key= CN(C)C1C2CCC(CC2O)C1c1ccccc1 (stereo in doubt; 8)
Solution: 11

Problem: // lookup Ratio | system=Monoamine transporters; serotonin & dopamine (Rattus norvegicus) (UniProt P31652+P23977) | key= CC(=O)OC1CC2CCC1C(N(C)C)C2c1ccccc1 (stereo in doubt; 10)
Solution: 14

Problem: // lookup Ratio | system=Monoamine transporters; serotonin & dopamine (Rattus norvegicus) (UniProt P31652+P23977) | key= CN(C)C1C2CCC(CC2OC(=O)c2ccccc2)C1c1ccccc1 (stereo in doubt; 19)
Solution: 0.83

* * *

target: Sodium-dependent dopamine transporter (Rattus norvegicus, UniProt P23977); assay: Inhibitory potency against [3H]DA uptake […]
Sequence (P23977 whole entry): as the sequence (P23977 whole entry, looked up) above
PROPERTY_NAME: pIC50
Scale explanation: pIC50 corresponds to minus log10 of a concentration expressed in moles per litre.

Problem: // lookup pIC50 | system=Sodium-dependent dopamine transporter (Rattus norvegicus, UniProt P23977) | key= CN(C)C1C2CCC(CC2OC(=O)c2ccccc2)C1c1ccccc1 (stereo in doubt; 18)
Solution: 5.32

Problem: // lookup pIC50 | system=Sodium-dependent dopamine transporter (Rattus norvegicus, UniProt P23977) | key= CN(C)C1C2CCC(CC2OC(=O)c2ccccc2)C1c1ccccc1 (stereo in doubt; 12)
Solution: 6.16

Problem: // lookup pIC50 | system=Sodium-dependent dopamine transporter (Rattus norvegicus, UniProt P23977) | key= CC(=O)OC1CC2CCC1C(N(C)C)C2c1ccccc1 (stereo in doubt; 9)
Solution: 5.31

Problem: // lookup pIC50 | system=Sodium-dependent dopamine transporter (Rattus norvegicus, UniProt P23977) | key= CC(=O)OC1CC2CCC1C(N(C)C)C2c1ccccc1 (stereo in doubt; 10)
Solution: 4.59

Problem: // lookup pIC50 | system=Sodium-dependent dopamine transporter (Rattus norvegicus, UniProt P23977) | key= CN(C)C1C2CCC(CC2O)C1c1ccccc1 (stereo in doubt; 15)
Solution: 4.64

* * *

molecular target: Sodium-dependent dopamine transporter (Rattus norvegicus, UniProt P23977); test: Inhibitory potency against dopamine (DA) transporter using [3H]WIN-35428 (WIN-) binding assay.
pIC50: −log10 of the molar value.
So basically: pIC50 at 6 or higher? That is 1. Lower than 6? That is 0.

Problem: Textbook exercise: given the entry CN(C)C1C2CCC(CC2OC(=O)c2ccccc2)C1c1ccccc1 (stereo in doubt; 18) , state whether its pIC50 is greater than or equal to 6.
Solution: 0

Problem: Textbook exercise: given the entry CN(C)C1C2CCC(CC2O)C1c1ccccc1 (stereo in doubt; 8) , state whether its pIC50 is greater than or equal to 6.
Solution: 0

Problem: Textbook exercise: given the entry CC(=O)OC1CC2CCC1C(N(C)C)C2c1ccccc1 (stereo in doubt; 17) , state whether its pIC50 is greater than or equal to 6.
Solution: 0

Problem: Textbook exercise: given the entry CN(C)C1C2CCC(CC2OC(=O)c2ccccc2)C1c1ccccc1 (stereo in doubt; 11) , state whether its pIC50 is greater than or equal to 6.
Solution: 1

Problem: Textbook exercise: given the entry CN(C)C1C2CCC(CC2O)C1c1ccccc1 (stereo in doubt; 7) , state whether its pIC50 is greater than or equal to 6.
Solution: 0

* * *

biological target: Sodium-dependent dopamine transporter (Rattus norvegicus); test: Inhibitory potency against dopamine (DA) transporter using [3H]WIN-35428 (WIN-) binding assay.
Please respond with reported pIC50 for every item in the list.
Scale explanation: pIC50 corresponds to minus log10 of a concentration expressed in moles per litre.

Problem: Entry CN(C)C1C2CCC(CC2O)C1c1ccccc1 (stereo in doubt; 15) has what pIC50?
Solution: 5.00

Problem: Entry CC(=O)OC1CC2CCC1C(N(C)C)C2c1ccccc1 (stereo in doubt; 16) has what pIC50?
Solution: 4.87

Problem: Entry CN(C)C1C2CCC(CC2=O)C1c1ccccc1 (stereo in doubt; 13) has what pIC50?
Solution: 4.99

Problem: Entry CN(C)C1C2CCC(CC2=O)C1c1ccccc1 (stereo in doubt; 6) has what pIC50?
Solution: 5.40

Problem: Entry CN(C)C1C2CCC(CC2OC(=O)c2ccccc2)C1c1ccccc1 (stereo in doubt; 19) has what pIC50?
Solution: 5.64

Problem: Entry CC(=O)OC1CC2CCC1C(N(C)C)C2c1ccccc1 (stereo in doubt; 9) has what pIC50?
Solution: 5.27

Problem: Entry CN(C)C1C2CCC(CC2O)C1c1ccccc1 (stereo in doubt; 14) has what pIC50?
Solution: 5.15

Problem: Entry CN(C)C1C2CCC(CC2OC(=O)c2ccccc2)C1c1ccccc1 (stereo in doubt; 12) has what pIC50?
Solution: 6.57

Problem: Entry CC(=O)OC1CC2CCC1C(N(C)C)C2c1ccccc1 (stereo in doubt; 10) has what pIC50?
Solution: 4.91

* * *

molecular target: Sodium-dependent serotonin transporter (Rattus norvegicus)
Sequence (P31652 whole entry): as the sequence (P31652 whole entry, looked up) above
Please assign 0.0 whenever IC50 is at or above 30 µM, and 1.0 whenever it is below.

Problem: Decide: IC50 of CC(=O)OC1CC2CCC1C(N(C)C)C2c1ccccc1 (stereo in doubt; 10) strictly below 30 µM?
Solution: 0.0

Problem: Decide: IC50 of CN(C)C1C2CCC(CC2OC(=O)c2ccccc2)C1c1ccccc1 (stereo in doubt; 18) strictly below 30 µM?
Solution: 1.0

Problem: Decide: IC50 of CN(C)C1C2CCC(CC2OC(=O)c2ccccc2)C1c1ccccc1 (stereo in doubt; 12) strictly below 30 µM?
Solution: 1.0

Problem: Decide: IC50 of CC(=O)OC1CC2CCC1C(N(C)C)C2c1ccccc1 (stereo in doubt; 9) strictly below 30 µM?
Solution: 1.0

Problem: Decide: IC50 of CN(C)C1C2CCC(CC2OC(=O)c2ccccc2)C1c1ccccc1 (stereo in doubt; 19) strictly below 30 µM?
Solution: 1.0

Problem: Decide: IC50 of CN(C)C1C2CCC(CC2=O)C1c1ccccc1 (stereo in doubt; 13) strictly below 30 µM?
Solution: 0.0

Problem: Decide: IC50 of COC(=O)[C@H](c1ccccc1)[C@H]1CCCCN1 [DEXMETHYLPHENIDATE] strictly below 30 µM?
Solution: 0.0

Problem: Decide: IC50 of CN(C)C1C2CCC(CC2=O)C1c1ccccc1 (stereo in doubt; 6) strictly below 30 µM?
Solution: 0.0

Problem: Decide: IC50 of CN(C)C1C2CCC(CC2O)C1c1ccccc1 (stereo in doubt; 8) strictly below 30 µM?
Solution: 1.0

The origin of these recorded values is ChEMBL document CHEMBL1132481.
